# Tested on: U2OS
# test_method_notes: drug sensitivity score (DSS) for viability; higher = more toxic; extreme values may be limits of the assay
# measurement_setup: 72 h
measured_endpoint: drug sensitivity score

{"columns": ["compound", "measured_value"],
 "data": [
  ["CCc1cn([C@H]2C[C@H](O)[C@@H](CO)O2)c(=O)[nH]c1=O [edoxudine]", 0],
  ["CCCc1c(OCCCCc2nnn[nH]2)ccc(C(C)=O)c1O [tomelukast]", 0],
  ["COc1cc(C(=S)N2CCOCC2)cc(OC)c1OC [sulmetozine]", 0],
  ["O=C(NCNC(=O)NC1C(=O)NC(=O)N1CO)NC1C(=O)NC(=O)N1CO (stereo not given) [imidurea]", 0],
  ["COc1ccc(/C=C/C(=O)/C=C(O)/C=C/c2ccc(OC)c(OC)c2)cc1OC [ASC-J9]", 4.3]
]}
